This collection of values is drawn from the Kinase Knowledgebase extract (Sharma et al. 2016).

- Tested system: PIK3CA (human)
Endpoint: IC50

| Compound | Tested system | IC50 |
| --- | --- | --- |
| CC(C)n1c(-c2ccccc2)nc2c(-c3cnc(N)cn3)nc(N3CCOCC3)nc21 | PIK3CA (human) | 100 to 1000 nM |
| CCC(C)n1c(NC(C)C)nc2c(-c3cnc(N)cn3)nc(N3CCOCC3)nc21 (centres undefined) | PIK3CA (human) | 100 to 1000 nM |
| CCC(C)n1c(Sc2ccccc2)nc2c(-c3cnc(N)nc3)nc(N3CCOCC3)nc21 (centres undefined) | PIK3CA (human) | 100 to 1000 nM |
| CCCCNc1nc2c(-c3cnc(N)nc3)nc(N3CCOCC3)nc2n1C1CCCC1 | PIK3CA (human) | < 100 nM |
| CCC(C)n1c(SC)nc2c(-c3cnc(N)cn3)nc(N3CCOCC3)nc21 (centres undefined) | PIK3CA (human) | 100 to 1000 nM |

In: Need IC50 of CC(C)n1c(OC2CCCC2)nc2c(-c3cnc(N)nc3)nc(N3CCOCC3)nc21 , thanks.
Out: 100 to 1000 nM

In: Need IC50 of CCC(C)n1c(-c2ccccc2)nc2c(-c3cnc(N)nc3)nc(N3CCOCC3)nc21 (centres undefined) , thanks.
Out: 100 to 1000 nM

In: Need IC50 of CCCCNc1nc2c(-c3cnc(N)nc3)nc(N3CCOCC3)nc2n1C(C)CC (centres undefined) , thanks.
Out: < 100 nM

In: Need IC50 of CC(C)n1c(-c2ccc3c(c2)OCO3)nc2c(-c3cnc(N)nc3)nc(N3CCOCC3)nc21 , thanks.
Out: < 100 nM

In: Need IC50 of CC(C)n1c(-c2ccsc2)nc2c(-c3cnc(N)nc3)nc(N3CCOCC3)nc21 , thanks.
Out: < 100 nM

In: Need IC50 of CCC(C)n1c(N2CCCC2C)nc2c(-c3cnc(N)nc3)nc(N3CCOCC3)nc21 (centres undefined) , thanks.
Out: 100 to 1000 nM

In: Need IC50 of CCC(C)n1c(NC(C)C)nc2c(-c3cnc(N)nc3)nc(N3CCOCC3)nc21 (centres undefined) , thanks.
Out: < 100 nM

In: Need IC50 of CCSc1nc2c(-c3cnc(N)nc3)nc(N3CCOCC3)nc2n1C(C)C , thanks.
Out: < 100 nM

In: Need IC50 of CCC(C)n1c(N2CCCC2)nc2c(-c3cnc(N)nc3)nc(N3CCOCC3)nc21 (centres undefined) , thanks.
Out: 100 to 1000 nM
